- Test system: Enterococcus faecium
- Measurement Description: In vitro antibacterial activity against Enterococcus faecium 02D31P2 VanTeiEry-R strain
- Format: functional
Property: MIC; scope: individual compounds

// lookup MIC for CO[C@@H]1[C@@H](OC(=O)c2ccc(C)[nH]2)[C@@H](O)[C@H](Oc2ccc3c(C)c(CC(=O)O)c(=O)oc3c2C)O[C@H]1C
> 40 µg/mL

Thanks! And CO[C@@H]1[C@@H](OC(=O)c2ccc(C)[nH]2)[C@@H](O)[C@H](Oc2ccc3c(CC(=O)O)cc(=O)oc3c2C)OC1(C)C ?
> 40 µg/mL

Could you do the same for CCCCCc1cc(O[C@@H]2OC(C)(C)[C@H](OC)[C@@H](OC(=O)c3ccc(C)[nH]3)[C@H]2O)c(C)c2oc(=O)c(C(=O)O)cc12 , please?
0.3 µg/mL

And COC(=O)Cc1cc(=O)oc2cc(O[C@@H]3O[C@@H](C)[C@H](OC)[C@@H](OC(=O)c4ccc(C)[nH]4)[C@H]3O)ccc12 ?
> 40 µg/mL
